All figures here come from patent US20100093612A1.

# assayedTarget: αvβ5 integrin receptor (Homo sapiens, UniProt P06756+P18084)
# Construct: purchased Chemicon International Inc., Temecula, Calif
# Sequence (P06756 31-889 limits assumed): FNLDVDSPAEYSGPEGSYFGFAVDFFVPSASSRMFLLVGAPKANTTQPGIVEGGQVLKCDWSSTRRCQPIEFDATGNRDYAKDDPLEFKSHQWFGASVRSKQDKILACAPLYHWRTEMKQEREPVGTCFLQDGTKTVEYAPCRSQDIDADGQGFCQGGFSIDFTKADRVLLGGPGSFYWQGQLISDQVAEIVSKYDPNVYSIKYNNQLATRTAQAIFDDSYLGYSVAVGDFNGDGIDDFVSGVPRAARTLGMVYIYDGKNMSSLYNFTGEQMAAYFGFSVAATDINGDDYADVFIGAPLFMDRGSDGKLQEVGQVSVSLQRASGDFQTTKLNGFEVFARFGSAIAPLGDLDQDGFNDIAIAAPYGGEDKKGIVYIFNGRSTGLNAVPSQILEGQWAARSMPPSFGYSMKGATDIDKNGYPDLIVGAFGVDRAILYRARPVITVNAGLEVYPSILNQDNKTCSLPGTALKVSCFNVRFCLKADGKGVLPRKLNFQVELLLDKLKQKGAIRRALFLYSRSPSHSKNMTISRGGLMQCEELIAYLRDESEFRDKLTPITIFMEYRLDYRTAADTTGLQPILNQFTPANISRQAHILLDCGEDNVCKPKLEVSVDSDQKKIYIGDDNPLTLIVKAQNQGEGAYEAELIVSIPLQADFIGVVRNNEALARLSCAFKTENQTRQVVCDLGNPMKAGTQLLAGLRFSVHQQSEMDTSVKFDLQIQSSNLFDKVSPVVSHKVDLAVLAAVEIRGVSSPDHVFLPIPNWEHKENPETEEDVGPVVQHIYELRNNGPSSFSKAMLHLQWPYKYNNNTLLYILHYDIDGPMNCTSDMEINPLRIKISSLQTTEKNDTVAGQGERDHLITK
# Sequence (P06756 891-1048 partner limits assumed): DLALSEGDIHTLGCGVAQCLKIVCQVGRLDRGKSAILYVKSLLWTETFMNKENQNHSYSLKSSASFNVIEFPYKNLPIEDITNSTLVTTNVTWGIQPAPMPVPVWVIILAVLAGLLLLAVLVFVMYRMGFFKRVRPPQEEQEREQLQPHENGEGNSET
# Sequence (P18084 24-799): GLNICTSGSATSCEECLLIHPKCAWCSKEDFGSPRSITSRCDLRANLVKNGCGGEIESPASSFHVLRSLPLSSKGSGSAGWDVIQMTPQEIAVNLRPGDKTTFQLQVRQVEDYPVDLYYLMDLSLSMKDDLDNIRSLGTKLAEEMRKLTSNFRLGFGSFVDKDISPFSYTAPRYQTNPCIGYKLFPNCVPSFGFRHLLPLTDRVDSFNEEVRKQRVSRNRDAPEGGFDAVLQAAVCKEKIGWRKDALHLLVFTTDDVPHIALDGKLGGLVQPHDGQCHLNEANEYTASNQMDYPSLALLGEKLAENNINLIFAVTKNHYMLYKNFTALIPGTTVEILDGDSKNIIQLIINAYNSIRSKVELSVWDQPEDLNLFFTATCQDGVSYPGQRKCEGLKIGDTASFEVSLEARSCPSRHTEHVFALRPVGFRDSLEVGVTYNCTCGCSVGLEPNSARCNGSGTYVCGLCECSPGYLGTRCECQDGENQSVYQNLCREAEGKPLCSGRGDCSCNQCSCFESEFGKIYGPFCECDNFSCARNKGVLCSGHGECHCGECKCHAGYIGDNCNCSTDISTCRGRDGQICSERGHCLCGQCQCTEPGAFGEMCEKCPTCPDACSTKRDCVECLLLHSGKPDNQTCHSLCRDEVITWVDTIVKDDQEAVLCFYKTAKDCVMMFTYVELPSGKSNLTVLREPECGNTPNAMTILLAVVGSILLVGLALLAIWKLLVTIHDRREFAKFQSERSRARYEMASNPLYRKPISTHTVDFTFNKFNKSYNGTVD
# runDescription: Solid-phase receptor-binding assay, competition with [125I]-echistatin, αvβ5
# protocolConditions: IC50 in the receptor high-affinity state; IC50±SD, average of three or more independent determinations; 0.1 nM [125I]echistatin
quantityMeasured: pIC50
To interpret pIC50, take it as minus log10 of a concentration measured in moles per litre.

Recorded pIC50 of CCCCCCCN1C[C@@H]2C[C@H]1C(=O)N[C@@H](CCCNC(=N)N)C(=O)NCC(=O)N[C@@H](CC(=O)O)C(=O)N2 [(Ip), c[-Arg-Gly-Asp-AMPRO15-]] , please.
9.06
